Source listed as ChEMBL document CHEMBL2203047.

Tested target: Metabotropic glutamate receptor 5 (Rattus norvegicus, UniProt P31424)
Sequence (P31424 whole entry): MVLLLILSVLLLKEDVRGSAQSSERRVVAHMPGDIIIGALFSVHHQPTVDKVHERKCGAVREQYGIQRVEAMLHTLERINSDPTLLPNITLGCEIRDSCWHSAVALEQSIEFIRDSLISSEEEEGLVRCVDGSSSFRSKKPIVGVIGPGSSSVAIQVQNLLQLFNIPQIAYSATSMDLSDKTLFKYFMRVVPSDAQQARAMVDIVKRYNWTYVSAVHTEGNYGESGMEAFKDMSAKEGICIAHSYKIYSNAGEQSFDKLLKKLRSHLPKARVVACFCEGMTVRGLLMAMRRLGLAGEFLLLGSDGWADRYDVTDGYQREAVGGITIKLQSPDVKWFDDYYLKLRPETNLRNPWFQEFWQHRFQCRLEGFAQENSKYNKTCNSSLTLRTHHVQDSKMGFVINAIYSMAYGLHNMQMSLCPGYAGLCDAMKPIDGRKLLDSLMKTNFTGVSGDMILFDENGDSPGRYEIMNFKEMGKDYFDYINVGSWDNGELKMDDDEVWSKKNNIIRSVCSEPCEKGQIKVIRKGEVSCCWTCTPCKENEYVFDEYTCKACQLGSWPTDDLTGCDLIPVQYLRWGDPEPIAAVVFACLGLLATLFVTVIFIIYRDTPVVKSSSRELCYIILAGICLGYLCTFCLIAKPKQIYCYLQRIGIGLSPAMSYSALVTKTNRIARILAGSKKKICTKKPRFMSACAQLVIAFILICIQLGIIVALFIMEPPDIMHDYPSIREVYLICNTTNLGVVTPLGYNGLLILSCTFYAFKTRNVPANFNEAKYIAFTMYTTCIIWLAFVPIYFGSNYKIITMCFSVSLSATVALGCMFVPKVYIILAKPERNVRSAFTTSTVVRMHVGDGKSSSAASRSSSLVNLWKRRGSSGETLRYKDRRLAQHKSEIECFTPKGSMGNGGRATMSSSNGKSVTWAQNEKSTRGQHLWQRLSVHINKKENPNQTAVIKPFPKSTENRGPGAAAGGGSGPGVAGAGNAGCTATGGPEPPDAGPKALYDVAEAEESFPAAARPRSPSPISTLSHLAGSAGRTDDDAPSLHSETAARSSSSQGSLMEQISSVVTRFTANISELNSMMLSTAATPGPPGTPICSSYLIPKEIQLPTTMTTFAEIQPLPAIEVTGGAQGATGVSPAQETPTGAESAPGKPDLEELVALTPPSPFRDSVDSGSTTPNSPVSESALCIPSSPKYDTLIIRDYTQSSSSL
Assay details: Ago-positive allosteric modulation of rat mGlu5 receptor expressed in HEK293 cells by fluorescence-based calcium flux assay
pEC50: −log10 of the molar value.
Everything with pEC50 lower than 6 is False; everything else, including exactly 6, is True.

Ask | Entry CCCC(C(=O)Nc1cccc(Cl)c1)N(c1ccccc1Cl)S(C)(=O)=O (racemic) : is its pEC50 no less than 6?
Reply | False

Ask | Entry `CCS(=O)(=O)N1c2ccccc2CC[C@H]1C(=O)Nc1cccc(Cl)c1` : is its pEC50 no less than 6?
Reply | False

Ask | Entry CC(C(=O)Nc1cccc(Cl)c1)N(c1ccccc1Cl)S(C)(=O)=O (racemic) : is its pEC50 no less than 6?
Reply | True

Ask | Entry `O=S(=O)(c1ccc(C#Cc2cccc(F)c2)cc1)N1CCOCC1` : is its pEC50 no less than 6?
Reply | True

Ask | Entry `CS(=O)(=O)N(CC(=O)Nc1cccnc1F)c1ccccc1Cl` : is its pEC50 no less than 6?
Reply | False

Ask | Entry `CS(=O)(=O)N(CC(=O)Nc1ccc(F)cn1)c1ccccc1Cl` : is its pEC50 no less than 6?
Reply | False

Ask | Entry `CS(=O)(=O)N(CC(=O)Nc1ccc(F)nc1)c1ccccc1Cl` : is its pEC50 no less than 6?
Reply | False

Ask | Entry `CS(=O)(=O)N(CC(=O)Nc1cccc(Cl)c1)c1ccccc1Cl` : is its pEC50 no less than 6?
Reply | True

Ask | Entry `CS(=O)(=O)N(CC(=O)NCC1CC1)c1cc(C(F)(F)F)ccc1Cl` : is its pEC50 no less than 6?
Reply | True
